- TESTED ON: Androgen Receptor (AR) (Homo sapiens, UniProt P10275, T878A)
- Construct: cell based immuno-fluorescence assay using the LNCaP prostate epithelial cell line; endogenous in cells; host or cells: LNCaP clone FGC (ATCC CRL-1740)
- Sequence (P10275 whole entry T878A): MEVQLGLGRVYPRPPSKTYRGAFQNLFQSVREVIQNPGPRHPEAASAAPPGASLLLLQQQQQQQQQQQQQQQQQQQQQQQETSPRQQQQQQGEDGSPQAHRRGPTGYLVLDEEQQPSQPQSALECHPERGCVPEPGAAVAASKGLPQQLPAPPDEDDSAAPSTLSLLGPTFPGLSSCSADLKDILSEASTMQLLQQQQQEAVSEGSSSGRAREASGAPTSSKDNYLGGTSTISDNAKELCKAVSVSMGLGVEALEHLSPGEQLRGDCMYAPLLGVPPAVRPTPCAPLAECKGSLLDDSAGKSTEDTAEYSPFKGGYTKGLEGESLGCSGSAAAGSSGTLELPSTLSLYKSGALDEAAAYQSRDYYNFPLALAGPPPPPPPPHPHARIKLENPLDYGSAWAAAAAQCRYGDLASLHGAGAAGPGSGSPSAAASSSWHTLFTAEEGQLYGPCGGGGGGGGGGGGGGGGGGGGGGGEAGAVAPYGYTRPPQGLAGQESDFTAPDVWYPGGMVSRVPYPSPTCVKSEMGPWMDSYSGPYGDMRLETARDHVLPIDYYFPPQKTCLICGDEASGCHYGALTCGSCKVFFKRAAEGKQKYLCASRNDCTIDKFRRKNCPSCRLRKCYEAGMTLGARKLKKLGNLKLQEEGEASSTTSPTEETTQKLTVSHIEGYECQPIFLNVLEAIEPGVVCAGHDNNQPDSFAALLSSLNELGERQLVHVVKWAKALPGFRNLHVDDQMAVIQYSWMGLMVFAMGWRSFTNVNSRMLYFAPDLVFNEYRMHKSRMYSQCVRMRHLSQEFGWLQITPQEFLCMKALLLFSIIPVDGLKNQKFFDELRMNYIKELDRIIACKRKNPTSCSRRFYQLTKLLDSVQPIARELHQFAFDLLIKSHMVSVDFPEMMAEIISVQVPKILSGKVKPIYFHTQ
- EXPERIMENT: LNCaP Androgen Receptor Down-regulation Cell Assay (immunofluorescence end point)
- Assay type: cell-based
- SETTINGS: LNCaP prostate carcinoma cells, compound incubation 20-22 hours, 50% reduction of the AR signal; read-out: Androgen Receptor Down-regulation Assay (a) IC50/μM
Mark each entry criterion met if its DC50 sits below 2 µM, and criterion not met for all others.

Lab log: compare recorded DC50 with 2 µM; is it strictly lower for FC(F)(F)c1nnc2ccc(N3CCC(Oc4ccc(Cl)cn4)CC3)nn12 ?
criterion not met

Proceed to COc1ccccc1S(=O)(=O)N1CCN(c2ccc3nnc(C(F)(F)F)n3n2)CC1
criterion not met

Proceed to FC(F)(F)c1nnc2ccc(N3CCN(Cc4ccc(Br)nc4)CC3)nn12
criterion met

Proceed to CN(C)CCCOc1ccc(OC2CCN(c3ccc4nnc(C(F)(F)F)n4n3)CC2)cc1
criterion met

Proceed to N#Cc1cnn(CCOc2ccc(C3CCN(c4ccc5nnc(C(F)(F)F)n5n4)CC3)cc2)c1
criterion met

Proceed to N#Cc1ccc(CN2CCN(c3ccc4nnc(C(F)F)n4n3)CC2)cc1
criterion not met

Proceed to FC(F)(F)c1nnc2ccc(N3CCN(Cc4ccoc4)CC3)nn12
criterion not met

Proceed to O=C(c1ccc(N2CCN(c3ccc4nnc(C(F)(F)F)n4n3)CC2)cc1)N1CCCC1
criterion not met

Proceed to O=C(CCCN1CCCC1)Nc1ccc(C2CCN(c3ccc4nnc(C(F)(F)F)n4n3)CC2)cc1
criterion met

Proceed to CC(C)(c1ccc(F)cc1)N1CCN(c2ccc3nnc(C(F)F)n3n2)CC1
criterion met

Proceed to O=C(NCCN1CCOCC1)c1cccc(OC2CCN(c3ccc4nnc(C(F)(F)F)n4n3)CC2)c1
criterion not met

Proceed to O=C(NCCN1CCOCC1)c1ccc(OC2CCN(c3ccc4nnc(C(F)(F)F)n4n3)CC2)cc1
criterion not met

Proceed to FC(F)(F)c1nnc2ccc(N3CCN(C(c4ccccc4)c4ccccc4)CC3)nn12
criterion met

Proceed to FC(F)(F)c1nnc2ccc(N3CCN(Cc4ccc(N5CCCC5)cc4)CC3)nn12
criterion not met

Proceed to Cn1nccc1CCOc1ccc(N2CCN(c3ccc4nnc(C(F)(F)F)n4n3)CC2)cc1
criterion met

Proceed to FC(F)(F)c1cccc(OC2CCN(c3ccc4nnc(C(F)(F)F)n4n3)CC2)c1
criterion met

Proceed to FC(F)(F)c1ccccc1CN1CCCN(c2ccc3nnc(C(F)(F)F)n3n2)CC1
criterion met

Proceed to FC(F)(F)c1nnc2ccc(N3CCC(n4ccc5ccccc54)CC3)nn12
criterion not met

Proceed to Cc1ccc(CN2CCN(c3ccc4nnc(C(F)(F)F)n4n3)CC2)cc1
criterion met

Proceed to FC(F)(F)c1nnc2ccc(N3CCN(Cc4c[nH]c5ccccc45)CC3)nn12
criterion met

Proceed to Cc1ccc(Sc2ccc(CN3CCN(c4ccc5nnc(C(F)(F)F)n5n4)CC3)cn2)cc1
criterion met

Proceed to CC(F)(F)c1nnc2ccc(N3CCN(Cc4cccc(F)c4)CC3)nn12
criterion not met

Proceed to CC1CN(c2ccc3nnc(C(F)(F)F)n3n2)C(C)CN1Cc1ccc(C#N)cc1 (stereo not shown)
criterion not met

Proceed to Fc1cccc(CN2CCCN(c3ccc4nnc(C(F)(F)F)n4n3)CC2)c1
criterion met

Proceed to FC(F)(F)c1nnc2ccc(N3CCC(Oc4cccc(Cl)n4)CC3)nn12
criterion met

Proceed to FC(F)c1nnc2ccc(N3CCN(Cc4c[nH]c5cccc(Cl)c45)CC3)nn12
criterion not met

Proceed to FC(F)(F)c1cccc(C2CCN(c3ccc4nnc(C(F)(F)Cl)n4n3)C2)c1 (stereo not shown)
criterion not met

Proceed to FC(F)(F)c1nnc2ccc(N3CCN(Cc4cnc5ccccc5c4)CC3)nn12
criterion not met

Proceed to CN(Cc1ccc(F)c(F)c1)C1CCN(c2ccc3nnc(C(F)(F)F)n3n2)CC1
criterion met

Proceed to CC(C)c1ccc(CN2CCN(c3ccc4nnc(C(F)(F)F)n4n3)CC2)cc1
criterion met

Proceed to Cc1cc(N2CCN(Cc3ccc(C#N)cc3)CC2)nn2c(C(F)(F)F)nnc12
criterion not met

Proceed to FC(F)(F)c1nnc2ccc(N3CC[C@@H](Oc4ccccn4)C3)nn12
criterion not met

Proceed to O=C(CN1CCOCC1)Nc1ccc(C2CCN(c3ccc4nnc(C(F)(F)F)n4n3)CC2)cc1
criterion not met

Proceed to FC(F)(F)c1nnc2ccc(N3CCN(CCc4cccc(Cl)c4)CC3)nn12
criterion met
